Target: F2RL2 (Homo sapiens)
Construct: purchased Promega (in-house HiBiT-GPCR construct library, NanoBRET)
Sequence (O00254 22-374): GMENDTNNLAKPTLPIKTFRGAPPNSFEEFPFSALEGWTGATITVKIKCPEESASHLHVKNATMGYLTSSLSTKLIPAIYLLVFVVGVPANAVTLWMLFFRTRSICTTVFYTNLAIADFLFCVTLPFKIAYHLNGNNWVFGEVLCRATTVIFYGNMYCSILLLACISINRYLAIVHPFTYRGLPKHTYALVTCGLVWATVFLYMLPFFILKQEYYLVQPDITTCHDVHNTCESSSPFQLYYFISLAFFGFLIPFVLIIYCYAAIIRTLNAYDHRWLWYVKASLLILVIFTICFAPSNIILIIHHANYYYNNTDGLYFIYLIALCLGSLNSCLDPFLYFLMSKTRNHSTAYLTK
Assay: NanoBRET screen HiBiT-F2RL2 in HEK293
Type: binding
Conditions: F2RL2; tracer 0.1μM
// boundary case: NanoBRET Fold Response equal to 1 maps to no (0); strictly smaller maps to yes (1)

{"columns": ["compound", "qualitative-label"],
 "data": [
  ["O=C(CCc1ccc2n1[B-](F)(F)[N+]1=C(c3ccc[nH]3)C=CC1=C2)NCc1ccc(C(=O)NCCOCCC(=O)N[C@@H]2CC[C@@]3(O)[C@H]4Cc5ccc(O)c6c5[C@@]3(CCN4CC3CC3)[C@H]2O6)cc1 [Naltrexone-3-NB590]", "no (0)"]
]}

Exercise: Record CCCn1c(=O)c2[nH]c(-c3ccc(OCC(=O)NCCNC(=O)CCOCCNC(=O)c4ccc(CNC(=O)CCc5ccc6n5[B-](F)(F)[N+]5=C(c7ccc[nH]7)C=CC5=C6)cc4)cc3)nc2n(CCC)c1=O : is its NanoBRET Fold Response strictly below 1?
Key: yes (1)

Exercise: Next record, please: Cc1nc2n(c(=O)c1CCN1CCC(c3noc4cc(F)ccc34)CC1)CCCC2OC(=O)NCCOCCOCCOCCOCCNC(=O)CCc1ccc2n1[B-](F)(F)[N+]1=C(c3ccc[nH]3)C=CC1=C2 (centres unmarked)
Key: yes (1)

Exercise: Also Cc1cc2c(s1)Nc1ccccc1N=C2N1CCN(CCCNC(=O)CCOCCOCCOCCOCCNC(=O)CCc2ccc3n2[B-](F)(F)[N+]2=C(c4ccc[nH]4)C=CC2=C3)CC1 ?
Key: yes (1)

###

Biological target: NPY1R (Homo sapiens, UniProt P25929)
Construct: purchased Promega (in-house HiBiT-GPCR construct library, NanoBRET)
Sequence (P25929 1-384): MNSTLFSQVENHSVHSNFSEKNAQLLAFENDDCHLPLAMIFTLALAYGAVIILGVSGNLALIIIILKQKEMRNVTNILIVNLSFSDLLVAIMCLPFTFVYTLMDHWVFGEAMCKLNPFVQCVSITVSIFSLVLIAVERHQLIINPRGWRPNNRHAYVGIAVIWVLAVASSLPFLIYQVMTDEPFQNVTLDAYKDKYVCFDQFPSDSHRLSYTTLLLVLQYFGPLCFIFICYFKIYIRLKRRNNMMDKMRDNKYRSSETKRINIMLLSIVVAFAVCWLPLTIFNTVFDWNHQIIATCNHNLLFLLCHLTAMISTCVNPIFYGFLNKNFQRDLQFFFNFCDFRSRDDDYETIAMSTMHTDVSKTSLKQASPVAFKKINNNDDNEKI
Test: NanoBRET screen HiBiT-NPY1R in HEK293
Type: binding
Conditions: NPY1R; tracer 1μM
Provide the reported NanoBRET Fold Response of each item.
One number for each entry.

See these solved cases before continuing.
{"columns": ["compound", "target", "NanoBRET Fold Response"],
 "data": [
  ["N#CN=C(NCCCOc1cccc(CN2CCCCC2)c1)NCCNC(=O)CCOCCOCCOCCOCCNC(=O)CCc1ccc2n1[B-](F)(F)[N+]1=C(c3ccc[nH]3)C=CC1=C2 [Aminopotentidine-2-NB590]", "NPY1R (Homo sapiens, UniProt P25929)", 1.01],
  ["Cc1nc2n(c(=O)c1CCN1CCC(c3noc4cc(F)ccc34)CC1)CCCC2OC(=O)NCCOCCOCCOCCOCCNC(=O)CCc1ccc2n1[B-](F)(F)[N+]1=C(c3ccc[nH]3)C=CC1=C2 (centres unmarked) [Risperidone-2-NB590]", "NPY1R (Homo sapiens, UniProt P25929)", 0.99]
]}

For each entry beneath this line, provide reported NanoBRET Fold Response.
1. O=C(CCc1ccc2n1[B-](F)(F)[N+]1=C(c3ccc[nH]3)C=CC1=C2)NCCOCCOCCNC(=O)OCCOCCN1CCN(C2=Nc3ccccc3Sc3ccccc32)CC1 [Quetiapine-a-2-NB590]
2. CC(C)N(CC[C@H](c1ccccc1)c1cc(CCNC(=O)CCOCCOCCOCCOCCNC(=O)CCc2ccc3n2[B-](F)(F)[N+]2=C(c4ccc[nH]4)C=CC2=C3)ccc1O)C(C)C [Tolterodine-2-NB590]
3. COc1ccccc1N1CCN(CCCCN2C(=O)c3ccc(CNC(=O)CCOCCOCCOCCOCCNC(=O)CCc4ccc5n4[B-](F)(F)[N+]4=C(c6ccc[nH]6)C=CC4=C5)cc3C2=O)CC1 [NAN-190-2-NB590]
4. Cc1cc2c(s1)Nc1ccccc1N=C2N1CCN(CCCNC(=O)CCOCCOCCOCCOCCNC(=O)CCc2ccc3n2[B-](F)(F)[N+]2=C(c4ccc[nH]4)C=CC2=C3)CC1 [Olanzapine-a-2-NB590]
5. CC(C)N(CC[C@H](c1ccccc1)c1cc(CCNC(=O)c2ccc(CNC(=O)CCc3ccc4n3[B-](F)(F)[N+]3=C(c5ccc[nH]5)C=CC3=C4)cc2)ccc1O)C(C)C [Tolterodine-BZ-NB590]

Key:
1. 0.71
2. 1.00
3. 0.94
4. 1.02
5. 0.95

// each listed compound needs a value for NanoBRET Fold Response
1. CCCn1c(=O)c2[nH]c(-c3ccc(OCC(=O)NCCNC(=O)CCOCCNC(=O)c4ccc(CNC(=O)CCc5ccc6n5[B-](F)(F)[N+]5=C(c7ccc[nH]7)C=CC5=C6)cc4)cc3)nc2n(CCC)c1=O [XAC-3-NB590]
2. COc1ccccc1N1CCN(CCCCN2C(=O)c3ccc(CNC(=O)CCOCCNC(=O)c4ccc(CNC(=O)CCc5ccc6n5[B-](F)(F)[N+]5=C(c7ccc[nH]7)C=CC5=C6)cc4)cc3C2=O)CC1 [NAN-190-3-NB590]
3. O=C(CCc1ccc2n1[B-](F)(F)[N+]1=C(c3ccc[nH]3)C=CC1=C2)NCc1ccc(C(=O)NCCOCCC(=O)N[C@@H]2CC[C@@]3(O)[C@H]4Cc5ccc(O)c6c5[C@@]3(CCN4CC3CC3)[C@H]2O6)cc1 [Naltrexone-3-NB590]
4. O=C(CCOCCOCCOCCOCCNC(=O)CCc1ccc2n1[B-](F)(F)[N+]1=C(c3ccc[nH]3)C=CC1=C2)NCCCN1CCN(C2=Nc3ccccc3Oc3ccc(Cl)cc32)CC1 [Loxapine-a-2-NB590]

Key:
1: 0.95; 2: 0.94; 3: 1.02; 4: 1.09
